src = ChEMBL document CHEMBL2424563

system: HL-60; assay: Cytotoxicity against human HL60 cells after 48 hrs by MTT assay; format: functional, cell-based; conditions: HL-60, 48 h
pIC50: −log10 of the molar value.
quantity name: pIC50

[[record]]
compound = "CC(=O)c1c(O)c(C)c(O)c(Cc2c(O)c(CC=C(C)C)c(O)c3c2O[C@H](c2ccccc2)CC3=O)c1O"
assay_system = "HL-60"
data_value = 4.80

[[record]]
compound = "CC(=O)c1c(O)c(C)c(O)c(Cc2c(O)c3c(c(C(=O)/C=C/c4ccccc4)c2O)OC(C)(C)C=C3)c1O [ROTTLERIN]"
assay_system = "HL-60"
data_value = 5.05

[[record]]
compound = "CC[C@@]1(O)C(=O)OCc2c1cc1n(c2=O)Cc2cc3ccccc3nc2-1 [CAMPTOTHECIN]"
assay_system = "HL-60"
data_value = 7.22

[[record]]
compound = "CC1(C)C=Cc2c(OCc3ccccc3)cc(O)c(C(=O)/C=C/c3ccccc3)c2O1"
assay_system = "HL-60"
data_value = 4.82

